assaySummary: Solubility in the phosphate buffer used in the examples
Type: physicochemical
conditionNotes: aqueous buffer, buffer 5 mM NaH2PO4, 0.15 M NaCl, pH 7.5, read-out: solubility against the buffer
Each record here notes measured solubility.

molecule="CCCCCCCCCCCCNCC(O)CO (centres unmarked) [dihydric alcohol 1B, 3-dodecylamino-1,2-propanediol]" recordedmeasurement="~0.2 mM"

IN: Tell me the measured solubility of CCCCCCCCNCC(O)CO (centres unmarked) [dihydric alcohol 1A, 3-octylamino-1,2-propanediol] , please.
OUT: ~10 mM
